Data provenance: PubChem BioAssay (NCATS)

- Test system: CP252
- methodSummary: qHTS profiling for inhibitors of Plasmodium falciparum proliferation (AID 504749); also: nearly all actives have a fitted effect of over 60% in size
- experimentalSetup: P. falciparum in erythrocytes, SYBR Green DNA, 72 h; series mostly up to 28.7 µM
Records with an inconclusive call do not appear. Activity calls are given as the source filed them. Calls follow the shape of the dose curve; as a rule, active = well fitted inhibition curve with a large enough effect; inconclusive = small, poorly fitted or top-dose-only effect; inactive = flat fitted curve, though single readings scatter.
Can you answer with just one of these options? class 1 = active, class 0 = inactive

molecule	className
NCCNC(=O)c1ccc(Cl)cn1	class 0

Then this molecule:
Input: // outcome(item) with item = `NS(=O)(=O)Cc1noc2ccccc12`
Output: class 0

* * *

- Test system: CP203
- methodSummary: qHTS profiling for inhibitors of Plasmodium falciparum proliferation (AID 504749); also: nearly all actives have a fitted effect of over 60% in size
- experimentalSetup: P. falciparum in erythrocytes, SYBR Green DNA, 72 h; series mostly up to 28.7 µM
Inconclusive results are not listed. Activity calls are given as the source filed them. The call rests on the fitted dose curve; in most records, active means well fitted inhibition curve with a large enough effect; inconclusive means small, poorly fitted or top-dose-only effect; inactive means flat fitted curve, though single readings scatter.
Can you answer with just one of these options? active, inactive

Please review the entries below; each comes with its answer.
molecule	tgt	className
FC(F)(F)C(F)(F)C(F)(F)C(F)(F)C(F)(F)C(F)(F)C(F)(F)C(F)(F)Br	CP203	inactive
Cn1c(=O)c2[nH]c(Br)nc2n(C)c1=O	CP203	inactive
NCCNC(=O)c1ccc(Cl)cn1	CP203	inactive
Cc1ccccc1OCC(O)CO (stereo not given)	CP203	inactive

Input: // outcome(item) with item = `O[C@@H](c1cc(C(F)(F)F)nc2c(C(F)(F)F)cccc12)[C@H]1CCCCN1`
Output: active

Input: // outcome(item) with item = `CC(=O)OC[C@H]1O[C@@H](n2ncc(=O)[nH]c2=O)[C@H](OC(C)=O)[C@@H]1OC(C)=O`
Output: inactive

* * *

// values below are reported activity, negative = inhibition
- methodSummary: qHTS profiling for inhibitors of Plasmodium falciparum proliferation (AID 504749); also: nearly all actives have a fitted effect of over 60% in size;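 as to activity, negative = inhibition: 0% = DMSO vehicle and full inhibition = artemisinin control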
- experimentalSetup: P. falciparum in erythrocytes, SYBR Green DNA, 72 h; at 28.7 µM (top of the series); parasite line A
- Method: NIH National Institute of Allergy and Infectious Diseases [NIAID] NIH Chemical Genomics Center [NCGC] […] Because mature erythrocytes lack DNA, only Plasmodium-derived DNA is detected. NCGC Assay Protocol Summary: The SYBR Green viability assay was adapted from a method described previously (Plouffe et al., 2008). […] The following morning, fluorescence intensity at 485(14) nm excitation and 535(25) nm emission wavelengths was measured on an EnVision (Perkin Elmer) plate reader. […]
Inconclusive results are not listed.
All answers are understood in %, so give the number only.

compound	activity, negative = inhibition, %
CC(=O)Nc1ccc(OCC(O)CNC(C)C)cc1 (stereo not drawn)	13.4
Cc1cccc(C)c1NC(=O)CN1CCCCCC1	14.8
CCCCN=C(N)N=C(N)N	-1.88
Nc1nc(-c2ccccc2)c(Br)c(=O)[nH]1	-7.1
CCc1ccc(C(=O)C(C)CN2CCCCC2)cc1 (stereo not drawn)	2.55
C#C[C@]1(O)CC[C@H]2[C@@H]3CCc4cc(OC)ccc4[C@H]3CC[C@@]21C	1.32

Input: Fill blank: measured activity, negative = inhibition of the compound `Cc1cc(-c2ccccc2)nnc1NCCN1CCOCC1` is ____.
Output: 6.44

Input: Fill blank: measured activity, negative = inhibition of the compound O=C(CCN1CCN2CCCC2C1)N1c2ccccc2Sc2ccc(Cl)cc21 (stereo not drawn) is ____.
Output: -26.8

Input: Fill blank: measured activity, negative = inhibition of the compound `NC(=O)C1(N2CCCCC2)CCN(CCCC(=O)c2ccc(F)cc2)CC1` is ____.
Output: 3.28

Input: Fill blank: measured activity, negative = inhibition of the compound `NC(N)=NCc1cccc(I)c1` is ____.
Output: -25.5

Input: Fill blank: measured activity, negative = inhibition of the compound `CC(=O)NCCCCCC(=O)O` is ____.
Output: 7.94

Input: Fill blank: measured activity, negative = inhibition of the compound `CCN(CC)CCNC(=O)c1cc(Br)c(N)cc1OC` is ____.
Output: 1.38

Input: Fill blank: measured activity, negative = inhibition of the compound `CN(C)C(=O)Nc1ccc(Cl)c(Cl)c1` is ____.
Output: -1.54
